# MEASUREMENT PROTOCOL: Physicochemical properties used as PBPK inputs
# CONDITIONS: pKa1 (acid), samidorphan; unpublished data provided by Alkermes
REPORTED PROPERTY: pKa

• NC(=O)c1ccc2c(c1O)[C@]13CCN(CC4CC4)[C@H](C2)[C@]1(O)CCC(=O)C3 = 7.5

###

# Tested on: non-CYP3A4 enzymes
# MEASUREMENT PROTOCOL: Unbound intrinsic metabolic clearance
# Type: in vitro ADME
# CONDITIONS: human
REPORTED PROPERTY: microsomal CLint

* NC(=O)c1ccc2c(c1O)[C@]13CCN(CC4CC4)[C@H](C2)[C@]1(O)CCC(=O)C3 | 5.22 µL/min/mg

###

# TARGET ENTITY: CYP3A4 (Homo sapiens)
# Sequence (P08684 whole entry): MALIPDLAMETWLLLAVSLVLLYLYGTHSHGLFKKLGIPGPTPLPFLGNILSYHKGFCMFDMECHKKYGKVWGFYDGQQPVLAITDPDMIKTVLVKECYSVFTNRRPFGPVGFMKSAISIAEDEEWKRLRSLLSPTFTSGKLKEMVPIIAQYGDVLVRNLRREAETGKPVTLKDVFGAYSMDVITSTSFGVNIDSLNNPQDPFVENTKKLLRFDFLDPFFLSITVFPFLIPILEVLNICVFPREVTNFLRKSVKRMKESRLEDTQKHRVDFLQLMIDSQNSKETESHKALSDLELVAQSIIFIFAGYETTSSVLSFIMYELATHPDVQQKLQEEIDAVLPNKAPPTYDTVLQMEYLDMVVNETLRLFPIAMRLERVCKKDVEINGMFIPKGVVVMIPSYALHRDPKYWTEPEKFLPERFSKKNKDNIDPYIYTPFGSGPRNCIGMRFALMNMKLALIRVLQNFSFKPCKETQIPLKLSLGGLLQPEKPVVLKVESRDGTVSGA
# Assay type: in vitro ADME
# CONDITIONS: human liver microsomes and recombinant enzymes
REPORTED PROPERTY: microsomal CLint (µL/min/mg)

• Cc1cc2c(s1)Nc1ccccc1N=C2N1CCN(C)CC1 = 4.42

###

# MEASUREMENT PROTOCOL: Caco-2 apical-to-basolateral apparent permeability
# Assay type: in vitro ADME
# CONDITIONS: human, Caco-2, pH 6.5
REPORTED PROPERTY: Papp A→B (×10⁻⁶ cm/s)

* NC(=O)c1ccc2c(c1O)[C@]13CCN(CC4CC4)[C@H](C2)[C@]1(O)CCC(=O)C3 [Samidorphan, samidorphan] | 18.8

###

# MEASUREMENT PROTOCOL: Renal clearance / renal excretion of unchanged drug
# CONDITIONS: human, in vivo
REPORTED PROPERTY: CL renal

• NC(=O)c1ccc2c(c1O)[C@]13CCN(CC4CC4)[C@H](C2)[C@]1(O)CCC(=O)C3 [Samidorphan, samidorphan] = 183 mL/min

###

# reported microsomal CLint; entries follow
# MEASUREMENT PROTOCOL: Unbound intrinsic metabolic clearance
# Format: in vitro ADME
# CONDITIONS: human
REPORTED PROPERTY: microsomal CLint (µL/min/mg)

* Cc1cc2c(s1)Nc1ccccc1N=C2N1CCN(C)CC1 [Olanzapine, olanzapine] | 57.9
* NC(=O)c1ccc2c(c1O)[C@]13CCN(CC4CC4)[C@H](C2)[C@]1(O)CCC(=O)C3 [Samidorphan, samidorphan] | 11.2

###

# System: CYP1A2
# MEASUREMENT PROTOCOL: Unbound intrinsic metabolic clearance assigned to CYP1A2
# Type: in vitro ADME
# CONDITIONS: human, human liver microsomes and recombinant enzymes
REPORTED PROPERTY: microsomal CLint (µL/min/mg)

* Cc1cc2c(s1)Nc1ccccc1N=C2N1CCN(C)CC1 [Olanzapine, olanzapine] | 23.7

###

# MEASUREMENT PROTOCOL: Blood-to-plasma partition ratio and fraction unbound in plasma
# Type: in vitro ADME
# CONDITIONS: plasma
REPORTED PROPERTY: fraction unbound

• NC(=O)c1ccc2c(c1O)[C@]13CCN(CC4CC4)[C@H](C2)[C@]1(O)CCC(=O)C3 [Samidorphan, samidorphan] = 0.69

###

# MEASUREMENT PROTOCOL: Caco-2 apical-to-basolateral apparent permeability
# Assay type: in vitro ADME
# CONDITIONS: human, Caco-2, pH 7.4
REPORTED PROPERTY: Papp A→B

* Cc1cc2c(s1)Nc1ccccc1N=C2N1CCN(C)CC1 [Olanzapine, olanzapine] | 17.4 ×10⁻⁶ cm/s

###

# TARGET ENTITY: CYP3A4 (Homo sapiens)
# Format: in vitro ADME
REPORTED PROPERTY: microsomal CLint (µL/min/mg)

• NC(=O)c1ccc2c(c1O)[C@]13CCN(CC4CC4)[C@H](C2)[C@]1(O)CCC(=O)C3 = 5.93
